- Tested on: Toxoplasma gondii RH-2F strain
- ASSAY REMARKS: Parasite growth assay
- Assay type: cell-based
- STATED CONDITIONS: Toxoplasma gondii, HFF, 48 h, read-out: Parasite inhibition (%)
ENDPOINT NAME: inhibition at 10 µM

COMPOUND	ENDPOINT NAME	ASSAY RESULT
C[C@H]1CC[C@@]2(OC1)O[C@H]1C[C@H]3[C@@H]4CC[C@@H]5C[C@@H](O[C@@H]6O[C@H](CO)[C@H](O)[C@H](O)[C@H]6O[C@@H]6O[C@H](CO)[C@@H](O)[C@H](O)[C@H]6O)CC[C@]5(C)[C@H]4CC[C@]3(C)[C@H]1[C@@H]2C	inhibition at 10 µM	81.4%
CC(C)=CC[C@H](O)C1=CC(=O)c2c(O)ccc(O)c2C1=O	inhibition at 10 µM	86.9%
CC(C)=CC[C@@H](O)C1=CC(=O)c2c(O)ccc(O)c2C1=O	inhibition at 10 µM	87.3%
O=c1cc(-c2ccc(O)c(O)c2)oc2cc(O)cc(O)c12	inhibition at 10 µM	74.3%
O=c1cc(-c2ccccc2)oc2cc(O)c(O)c(O)c12	inhibition at 10 µM	80.1%
c1c2c(cc3c1OCO3)-c1cc3ccc4c(c3c[n+]1CC2)OCO4 [Coptisine Chloride]	inhibition at 10 µM	73.3%
COc1ccc2cc3[n+](cc2c1OC)CCc1cc2c(cc1-3)OCO2 [Berberine Chloride]	inhibition at 10 µM	85.5%
